The measurements presented in this section are drawn from PubChem BioAssay (NCI).

Test system: EKVX NSCLC
Experiment: NCI-60 one-dose screen, 48 h
Details: 10 µM unless noted
The panel holds about 83,000 compounds, 20% with a hit somewhere; the sample as a whole holds those more often. Active and inactive are the calls of the source. Rule for the calls: active = growth percent below 10; inactive = the rest.
Classes used: label 1 (active), label 0 (inactive)

* CSc1nc2sc3cc(Cl)c(Cl)cc3n2c(=N)c1C#N | label 0
* Cn1cc(-c2nnc(-c3cn(C)c4ncc(Br)cc34)o2)c2ccccc21 | label 0
* O=C(NCCCCCCCNC(=O)OCc1ccc2c(Cl)cc(Cl)c(O)c2n1)OCc1ccc2c(Cl)cc(Cl)c(O)c2n1 | label 1
* O=C1CC(c2ccccc2)Cc2nc3ccc(Br)cc3cc21 (stereo not given) | label 0
* COc1ccc2c(c1)C(C)Cc1c(ncnc1-n1cnc3ccccc31)N2C (stereo not given) | label 0
* Cc1ccc2c(c1)C(C)Cc1c(Cl)ncnc1N2C (stereo not given) | label 0
* CC1Cc2c(ncnc2-n2cnc3ccccc32)N(C)c2ccccc21 (stereo not given) | label 0
* COc1ccc(-c2cc(-c3ccc(Cl)cc3)nc(SCCCCCCC(=O)NO)n2)cc1 | label 0
* COc1cc(C)cc2oc3oc(=N)c(C(=O)c4ccccc4)cc3c(=O)c12 | label 0
* CCN(CC)c1cc(N)c(Cc2c(N)cc(N(CC)CC)cc2Cl)c(Cl)c1 | label 0
* Cc1cccc(C[C@H](NC(=O)Nc2ccc(Cl)cc2F)C(=O)N[C@@H]2C(=O)N3C[C@H](O)C[C@H]3C(=O)N3CCN(C)C[C@H]3C(=O)N[C@@H](C)C(=O)N3C[C@H](C)C[C@H]3C(=O)O[C@H]2C)c1 | label 0
* O=C1COCCN1c1ccc(NCc2cn(Cc3ccc(F)cc3)c3ccccc23)cc1 | label 0
* CC(C)C1=NOC(=O)C1=Cc1cn(-c2ccccc2)nc1-c1ccccc1 | label 0
* CC[C@]12C=CCN3CC[C@@]4(c5ccc(OC)cc5N(C)[C@H]4[C@@](O)(C(=O)OC)[C@@H]1OC(=O)CCC(=O)O[C@H]1CC[C@H]4[C@@H]5CCC6=CC(=O)CC[C@@H]6[C@H]5CC[C@]14C)[C@@H]32 | label 0
* COc1ccc(C(=O)CSc2nccc(Nc3ccc(C(=O)O)cc3)n2)cc1 | label 0
* CN(C)Cc1ccc[nH]1 | label 0
* Cc1cc(C)nc(SCC(=O)Nc2cccc(N=Cc3ccccc3O)c2)n1 | label 0
* Nc1cccc2c1C(=O)c1cccc(NC(=O)c3ccccc3)c1C2=O | label 1
* O=C(OCc1ccc2c(Cl)cc(Cl)c(O)c2n1)N1CCNCC1 | label 0
* COc1cc2c(cc1OC(C)=O)C(=O)CCCC2 | label 0

----------
Test system: HT29 colon
Experiment: NCI-60 one-dose screen, 48 h
Conditions: 10 µM unless noted
About 83,000 compounds went through this panel and 20% of them were active in at least one assay; those are over-represented in the sample as a whole. The source made the active and inactive calls. The calls were made as follows: active = growth percent below 10; inactive = the rest.
Outcome codes: active, inactive

* CC1(C)CC[C@]2(C(=O)O)CC[C@]3(C)C(=CC[C@@H]4[C@@]5(C)C/C(=C/c6cccnc6)[C@H](O)C(C)(C)[C@@H]5CC[C@]43C)[C@@H]2C1 | active
* COc1ccc(/C=C(/C(=O)c2ccc(Cl)cc2)C(=O)C(F)(F)F)cc1 | inactive
* C=C(C)[C@@H]1CC[C@]2(C(=O)NCCNCCNCCN)CC[C@]3(C)[C@H](CC[C@@H]4[C@@]5(C)CCC(=O)C(C)(C)[C@@H]5CC[C@]43C)[C@@H]12 | active
* C=C(C)[C@@H]1CC[C@]2(COCCCN)CC[C@]3(C)[C@H](CC[C@@H]4[C@@](C)(CCCNCCCN)[C@H](C(=C)C)CC[C@]43C)[C@@H]12 | active

----------
System: CCRF-CEM leukemia
Experiment: NCI-60 one-dose screen, 48 h
Conditions: 10 µM unless noted
The panel holds about 83,000 compounds, 20% with a hit somewhere; the sample as a whole holds those more often. Activity calls are given as the source filed them. Rule for the calls: active = growth percent below 10; inactive = the rest.
Labels: active, inactive

- CCc1ccc(NC(=O)N[C@@H](Cc2cc(F)cc(F)c2)C(=O)N[C@@H]2C(=O)N3C[C@H](O)C[C@H]3C(=O)N3CCOC[C@H]3C(=O)N[C@@H](C)C(=O)N3C[C@H](C)C[C@H]3C(=O)O[C@H]2C)cc1: inactive
- Cc1cccc(C[C@H](NC(=O)Nc2ccc(Cl)cc2F)C(=O)N[C@@H]2C(=O)N3C[C@H](OC(=O)CCN(C)C)C[C@H]3C(=O)N3CCCC[C@H]3C(=O)N[C@@H](C)C(=O)N3C[C@H](C)C[C@H]3C(=O)O[C@H]2C)c1: inactive
- COc1ccc(-c2cc(-c3ccc(Cl)cc3)nc(NCCCCNc3ccnc4cc(Cl)ccc34)n2)cc1: active

----------
Test system: HCT-15 colon
Assay: NCI-60 one-dose screen, 48 h
Conditions: 10 µM unless noted
About 83,000 compounds went through this panel and 20% of them were active in at least one assay; those are over-represented in the sample as a whole. Active and inactive are the calls of the source. Rule for the calls: active = growth percent below 10; inactive = the rest.
Outcomes: class 1 for active, class 0 for inactive

* COc1cc(-c2cc(-c3ccc(Nc4ncnc5cc(Cl)ccc45)cc3)nc(N3CCCCC3)n2)cc(OC)c1OC | class 0
* O=C1/C(=C\c2cn(CC(O)CN3CCCCC3)c3ccccc23)c2ccccc2N1c1c(Cl)cccc1Cl (stereo unspecified) | class 1
* CNC(=O)c1cc(Oc2cccc3nc(NC(=O)Nc4cc(C(F)(F)F)cc(C(F)(F)F)c4)ccc23)ccn1 | class 0
* Nc1nc(Nc2ccccc2)c2ncn(Cc3cc4c(cc3Br)OCO4)c2n1 | class 1
* CC(=O)OC[C@]12CC[C@@H](C(=O)CBr)[C@@H]1[C@H]1CC[C@@H]3[C@@]4(C)CCCNC(C)(C)[C@@H]4CC[C@@]3(C)[C@]1(C)CC2 | class 1
* Cc1cccc(C[C@H](NC(=O)Nc2ccc(Cl)cc2F)C(=O)N[C@@H]2C(=O)N3C[C@H](O)C[C@H]3C(=O)N3CCN(C)C[C@H]3C(=O)N[C@@H](C)C(=O)N3C[C@H](C)C[C@H]3C(=O)O[C@H]2C)c1 | class 0
* C[N+](C)(C)c1ncnc2[n-]cnc12 | class 0
* Cc1ccc(S(=O)(=O)NCCCNc2nccc(-c3c(-c4cccc(F)c4)nc4occn34)n2)cc1 | class 0
* COCc1nc2ccccc2[nH]1 | class 0
* COc1ccccc1S(=O)Nc1ccccc1 (stereo unspecified) | class 0
* O=C(CCN1CCCCC1)c1ccc2ccccc2c1 | class 0
* O=[N+]([O-])c1cccc(N=NNc2cccc([N+](=O)[O-])c2)c1 | class 0
* NC(=S)Cc1ccccc1 | class 0
* C=CCc1nc2ccccc2s1 | class 0
* COc1ccc(/C=C(/C(=O)c2ccc(Cl)cc2)C(=O)C(F)(F)F)cc1 | class 0
* COc1ccc(NC(=S)NNc2ccc(-c3ccc(OC)c(OC)c3)nn2)cc1 | class 0
* COC(=O)[C@]12CCC(C)(C)C[C@H]1C1=CC[C@@H]3[C@@]4(C)C/C(=C/c5cccnc5)C(=O)C(C)(C)[C@@H]4CC[C@@]3(C)[C@]1(C)CC2 | class 1
* C=C(C)[C@@H]1CC[C@]2(C(=O)N3CCN(C)CC3)CC[C@]3(C)[C@H](CC[C@@H]4[C@@]5(C)C/C(=C/c6ccncc6)[C@H](O)C(C)(C)[C@@H]5CC[C@]43C)[C@@H]12 | class 1
* CCOC(=O)C(c1ccccc1)N1C(=O)c2ccccc2C1=O (stereo unspecified) | class 0
* O=c1[nH]c2cc(Cl)c(Cl)cc2n2cc3ncccc3c12 | class 0
* CCc1cccc(Cl)c1 | class 0
* COc1cc(OC)c(/C=C/C(=O)c2c(N)cc(OC)cc2OC)c(OC)c1 | class 0
* COc1ccc(C=C2c3ccccc3-c3ccccc32)cc1 | class 0
* C=CC1=C(C)C2=NC1=CC1=NC(=CC3=C(C)C4=C(O)C(C(=O)O)C(=C5NC(=C2)C(C)C5CCC(=O)O)C4=N3)C(CC)=C1C (stereo unspecified) | class 0
* Cc1ccc2c(n1)C(=O)C(Cl)=C(Nc1ccc(N3CCN(C)CC3)cc1)C2=O | class 0
* CCn1cc(-c2cc(-c3ccc(Cl)cc3)nc(N)n2)c(-c2ccc(Br)cc2)n1 | class 0
* CCCCN(CCCC)CC(O)c1ccc(OCc2ccccc2)c2ccccc12 (stereo unspecified) | class 0
* Cc1ccc(Oc2c(/C=N/NC(=O)Cn3c(=O)sc4ccccc43)c(C)nn2-c2ccccc2)cc1 | class 0
* CCCCC1COc2cccc3c2N1C=C/C3=C\C(=O)n1ccc2ccccc21 (stereo unspecified) | class 0
* C=C(C)[C@@H]1CC[C@]2(C(=O)NCCNCCNCCN)CC[C@]3(C)[C@H](CC[C@@H]4[C@@]5(C)CCC(=O)C(C)(C)[C@@H]5CC[C@]43C)[C@@H]12 | class 1
* CCN(CC)c1ccc2cc(C(Nc3ccc(Br)c(C(F)(F)F)c3)c3nnnn3C(C)(C)C)c(=O)oc2c1 (stereo unspecified) | class 0
* CC(C)[C@H]1COC(=O)N1[C@@H]1C(=O)N([C@@H](CCC(=O)N2CCN(C3CCCC3)CC2)C(=O)N[C@@H]2CCCc3ccccc32)[C@@H]1/C=C/c1cccc(Cl)c1 | class 0
* COc1cc2c(=O)[nH]c3cc([N+](=O)[O-])ccc3c2cc1[N+](=O)[O-] | class 0
* CC1(C)CC[C@]2(C(N)=O)CC[C@]3(C)C(=CC[C@@H]4[C@@]5(C)C/C(=C/c6cccnc6)C(=O)C(C)(C)[C@@H]5CC[C@]43C)[C@@H]2C1 | class 1
* CCCCOC(=O)c1c(C)[nH]c(/C=C2\N=C(c3ccc[nH]3)C=C2OC)c1C | class 1
* CN(C)C(=S)Sc1ccc([N+](=O)[O-])cc1[N+](=O)[O-] | class 1
